src = PubChem BioAssay AID256

test system: CD2F1 mice, L1210 leukemia ip, survival T/C; assay: NCI In Vivo Anticancer Drug Screen. Data for tumor model L1210 Leukemia (intraperitoneal) in CD2F1 (CDF1) mice; details: endpoint: mean survival time; dose: 400.0 mg/kg/injection; schedule: Q04DX003 (ip); vehicle: saline; higher = longer survival
Toxic doses and inconclusive results are not listed.

{"molecule": "CCCC(NC(=O)CN)C(=O)O (stereo not drawn)", "tested system": "CD2F1 mice, L1210 leukemia ip, survival T/C", "T/C": "102 % of control"}
{"molecule": "CC(C)NC(=O)/C=C/C(=O)O", "tested system": "CD2F1 mice, L1210 leukemia ip, survival T/C", "T/C": "100 % of control"}
{"molecule": "CC1(C(=O)O)CCCC1C(CCC(=O)O)C(=O)O (stereo not drawn)", "tested system": "CD2F1 mice, L1210 leukemia ip, survival T/C", "T/C": "96 % of control"}
{"molecule": "CC(C)(O)C#CC(C)(C)O", "tested system": "CD2F1 mice, L1210 leukemia ip, survival T/C", "T/C": "97 % of control"}
{"molecule": "CC(=O)OC1CCC(C(C)(C)C)CC1 (stereo not drawn)", "tested system": "CD2F1 mice, L1210 leukemia ip, survival T/C", "T/C": "96 % of control"}
{"molecule": "O=C(O)C(O)C(O)C(O)CO (stereo not drawn)", "tested system": "CD2F1 mice, L1210 leukemia ip, survival T/C", "T/C": "97 % of control"}
{"molecule": "CC(N)C(=O)NC(CO)C(=O)O (stereo not drawn)", "tested system": "CD2F1 mice, L1210 leukemia ip, survival T/C", "T/C": "93 % of control"}
{"molecule": "OC1OCCOC1O (stereo not drawn)", "tested system": "CD2F1 mice, L1210 leukemia ip, survival T/C", "T/C": "115 % of control"}
{"molecule": "OCN(CO)c1ccc2c(c1)Cc1cc(Cl)ccc1-2", "tested system": "CD2F1 mice, L1210 leukemia ip, survival T/C", "T/C": "91 % of control"}
{"molecule": "CC(C)NC(=O)C1C2CCC(C2)C1C(=O)NC(C)C (stereo not drawn)", "tested system": "CD2F1 mice, L1210 leukemia ip, survival T/C", "T/C": "98 % of control"}
{"molecule": "Nc1nc(N)c(N=O)c(N)n1", "tested system": "CD2F1 mice, L1210 leukemia ip, survival T/C", "T/C": "102 % of control"}
{"molecule": "Cc1cc(C)[nH]c(=O)n1", "tested system": "CD2F1 mice, L1210 leukemia ip, survival T/C", "T/C": "94 % of control"}
{"molecule": "CS(=O)(=O)OCCCOS(C)(=O)=O", "tested system": "CD2F1 mice, L1210 leukemia ip, survival T/C", "T/C": "110 % of control"}
{"molecule": "CNC(=O)NC1CCC(C)CC1 (stereo not drawn)", "tested system": "CD2F1 mice, L1210 leukemia ip, survival T/C", "T/C": "96 % of control"}
{"molecule": "CCCCCCCCC(=O)CCCC", "tested system": "CD2F1 mice, L1210 leukemia ip, survival T/C", "T/C": "98 % of control"}
{"molecule": "CC1(C)OC1C(=O)O (stereo not drawn)", "tested system": "CD2F1 mice, L1210 leukemia ip, survival T/C", "T/C": "98 % of control"}
{"molecule": "Cc1c2ccncc2c(C)c2c1[nH]c1ccc(Br)cc12", "tested system": "CD2F1 mice, L1210 leukemia ip, survival T/C", "T/C": "103 % of control"}
{"molecule": "O=C(O)C1(O)C[C@@H](O)C(O)[C@H](O)C1 (stereo partly drawn)", "tested system": "CD2F1 mice, L1210 leukemia ip, survival T/C", "T/C": "102 % of control"}

====

test system: CD2F1 mice, L1210 leukemia ip, survival T/C; assay: NCI In Vivo Anticancer Drug Screen. Data for tumor model L1210 Leukemia (intraperitoneal) in CD2F1 (CDF1) mice; settings: endpoint: mean survival time; dose: 5.0 mg/kg/injection; schedule: Q01DX009 (ip); vehicle: saline with Tween-80; higher = longer survival
Toxic doses and inconclusive results are not listed.

{"compound": "C=C(Br)CNC(=O)CCC", "T/C": "106 % of control"}
{"compound": "NC(Cc1ccc(N(CCCl)CCCl)cc1)C(=O)O (stereo unspecified)", "T/C": "121 % of control"}
{"compound": "CCCCCCCCCCNCCS", "T/C": "104 % of control"}
{"compound": "CC(=O)N1CCC2(CC1)SSC1(CCN(C(C)=O)CC1)S2", "T/C": "102 % of control"}
{"compound": "O=[N+]([O-])c1cc(C2CCCCC2)c(O)c([N+](=O)[O-])c1", "T/C": "98 % of control"}
{"compound": "O=C(CF)[O][Sb]([O]C(=O)CF)([c]1ccccc1)([c]1ccccc1)[c]1ccccc1", "T/C": "105 % of control"}

====

tested on: CD2F1 mice, L1210 leukemia ip, survival T/C; assay: NCI In Vivo Anticancer Drug Screen. Data for tumor model L1210 Leukemia (intraperitoneal) in CD2F1 (CDF1) mice; details: endpoint: mean survival time; dose: 200.0 mg/kg/injection; schedule: Q01DX009 (ip); vehicle: saline with Tween-80; higher = longer survival
Inconclusive results and toxic doses are left out.
endpoint label: T/C

{"molecule": "NC(=O)Cn1cnnn1", "observed value": "101 % of control"}
{"molecule": "O=C(NCCCC1C2CCC(C2)C1CNC(=O)Nc1cccc(Cl)c1)Nc1cccc(Cl)c1 (configuration not stated)", "observed value": "93 % of control"}
{"molecule": "COC(=O)c1cccc2c(Cl)cc3ccccc3c12", "observed value": "105 % of control"}
{"molecule": "CC1(C)OCC2OC3(C(=O)O)OC(C)(C)OC3C2O1 (configuration not stated)", "observed value": "92 % of control"}
{"molecule": "Cc1ccc([N+](=O)[O-])cc1NC(=O)NNC(=O)CNC(=O)NCc1ccco1", "observed value": "89 % of control"}
{"molecule": "N#C/C(=C\\c1cc(Cl)cc(Cl)c1O)C(/C(C#N)=C/c1cc(Cl)cc(Cl)c1O)c1ccc2c(c1)OCO2 (configuration not stated)", "observed value": "94 % of control"}
{"molecule": "O=[N+]([O-])c1c(Cl)c(Cl)cc(Cl)c1Cl", "observed value": "96 % of control"}
{"molecule": "CN/N=C/c1ccc(O)c(OC)c1", "observed value": "87 % of control"}
{"molecule": "CCCCOC(N)=O", "observed value": "105 % of control"}
{"molecule": "O=C1CCc2cccc(O)c21", "observed value": "93 % of control"}
{"molecule": "c1ccc(C(OOC(c2ccccc2)(c2ccccc2)c2ccccc2)(c2ccccc2)c2ccccc2)cc1", "observed value": "90 % of control"}
{"molecule": "CCCCCCCCCCCCCCCCCCNC(=O)Nc1ccc(CC)cc1", "observed value": "109 % of control"}

====

Known T/C of a selection of compounds
System: CD2F1 mice, L1210 leukemia ip, survival T/C
Assay: NCI In Vivo Anticancer Drug Screen. Data for tumor model L1210 Leukemia (intraperitoneal) in CD2F1 (CDF1) mice
Settings: endpoint: mean survival time; dose: 100.0 mg/kg/injection; schedule: Q04DX003 (ip); vehicle: saline with Tween-80; higher = longer survival
Procedure: The antitumor activity of compounds was measured in mice bearing transplantable tumors. Survival or tumor size were measured and the results are expressed as the measurement made in the treated group (T) divided by the measurement made in the vehicle treated control group (C). The tumor model used in this assay is L1210 Leukemia (intraperitoneal) in CD2F1 (CDF1) mice
Inconclusive results and toxic doses are left out.
endpoint label: T/C

{"compound": "CCOc1ccc(NC(=S)N(C)C)cc1", "tested system": "CD2F1 mice, L1210 leukemia ip, survival T/C", "observed value": "89 % of control"}
{"compound": "CN(C)C(=S)NCc1ccccc1", "tested system": "CD2F1 mice, L1210 leukemia ip, survival T/C", "observed value": "105 % of control"}
{"compound": "C=C(c1ccccc1)c1ccc(F)cc1", "tested system": "CD2F1 mice, L1210 leukemia ip, survival T/C", "observed value": "100 % of control"}
{"compound": "O=C(OCC1OCOC(COC(=O)c2ccccc2)C(O)C1O)c1ccccc1 (configuration not stated)", "tested system": "CD2F1 mice, L1210 leukemia ip, survival T/C", "observed value": "97 % of control"}
{"compound": "CC/C(=N/O)C(N)=O", "tested system": "CD2F1 mice, L1210 leukemia ip, survival T/C", "observed value": "100 % of control"}
{"compound": "COc1cc(NCCCCN2C(=O)c3ccccc3C2=O)c2ncccc2c1", "tested system": "CD2F1 mice, L1210 leukemia ip, survival T/C", "observed value": "97 % of control"}
{"compound": "COc1ccc2ccccc2c1/C=N/N1CCCCC1", "tested system": "CD2F1 mice, L1210 leukemia ip, survival T/C", "observed value": "102 % of control"}
